Value source: paper PMC10222464

- Applied Conditions: in vivo
Test Readout: Detected in rat urine (U)

{"Compound": "C=C(C(=O)N(C)C)C1CCC(C)C2CC(=O)C(C)=C2C1 (stereo not shown) [M4]", "Result": "×"}
{"Compound": "C=C(C(=O)NCC1=CC(c2ccc(F)cc2)NO1)C1CCC(C)C2CC(=O)C(C)=C2C1 (stereo not shown) [M8]", "Result": "×"}
{"Compound": "C=C(C(=O)NCc1cc(-c2ccc(F)cc2)no1)C1CC[C@H](C(=O)O)C2CC(=O)C(C)=C2C1 (stereo partly shown) [M5]", "Result": "√"}
{"Compound": "C=C(C(N)=O)C1CCC(C)C2CC(=O)C(C)=C2C1 (stereo not shown) [M1]", "Result": "√"}

----------
- Applied Conditions: in vivo
Test Readout: Detected in rat feces (F)

{"Compound": "C=C(C(N)=O)C1CCC(C)C2CC(=O)C(C)=C2C1 (stereo not shown) [M1]", "Result": "√"}
{"Compound": "C=C(C(=O)NCc1cc(-c2ccc(F)cc2)no1)C1CC[C@H](C(=O)O)C2CC(=O)C(C)=C2C1 (stereo partly shown) [M5]", "Result": "×"}
{"Compound": "C=C(C(=O)NCC1=CC(c2ccc(F)cc2)NO1)C1CCC(C)C2CC(=O)C(C)=C2C1 (stereo not shown) [M8]", "Result": "√"}
{"Compound": "C=C(C(=O)N(C)C)C1CCC(C)C2CC(=O)C(C)=C2C1 (stereo not shown) [M4]", "Result": "√"}
